Reference for the values: ChEMBL document CHEMBL1139682

# Procedure Summary: Biodistribution in kidney of TA2 mouse bearing MA891 xenograft after 30 mins
# Type: ADME, organism-based
# Cond: read-out: Drug uptake
Quantity Kind: tissue uptake at 0.5 h

Quick one: tissue uptake at 0.5 h for CSCC(=O)NC1[C@H](O)O[C@H](CO)[C@@H](O)[C@@H]1O (stereo partly specified) ?
8.8 %ID/g

###

# Procedure Summary: Biodistribution in heart of TA2 mouse bearing MA891 xenograft after 30 mins
# Assay type: ADME, organism-based
# Cond: read-out: Drug uptake
Quantity Kind: tissue uptake at 0.5 h (%ID/g)
Write it as a number; the unit %ID/g goes unstated.

Quick one: tissue uptake at 0.5 h for CSCC(=O)NC1[C@H](O)O[C@H](CO)[C@@H](O)[C@@H]1O (stereo partly specified) ?
0.9
